# Test system: HepG2 cells
# Assay Notes: MTT assay, cell viability of HepG2 cells
# Type: cell-based
# Reported Conditions: Homo sapiens, HepG2, read-out: HepG2 IC50

# Compound, Test Target, IC50
records = [
    ("CCCCCCCCCCCC(=O)OC12CC(C)C34C=C(C)C(OC(=O)C(C)C(C)C)C3(O)C(O)C(CO)=CC(C4=O)C1C2(C)C (stereo not shown)", "HepG2 cells", "21 µM"),
]

Reference source for all entries: paper PMC11432454
